# credit: ChEMBL document CHEMBL1123385

# study_target: Voltage-gated L-type calcium channel (Rattus norvegicus, UniProt P22002+Q02485+P27732)
# test_description: Inhibition of [3H]nitrendipine binding to L-type calcium channel from rat brain cortex homogenate
Label key: YES means Ki under 7 nM l-1; NO means Ki of 7 nM l-1 or more.

Given CO/C(O)=C1\C(C)=NC(C)=C(C(=O)O[C@H]2CCN(Cc3ccccc3)C2)[C@H]1c1cccc([N+](=O)[O-])c1.Cl , is recorded Ki strictly lower than 7 nM l-1?
YES

Is Ki strictly under 7 nM l-1 for the entry CO/C(O)=C1\C(C)=NC(C)=C(C(=O)O[C@H]2CCN(Cc3ccccc3)C2)[C@@H]1c1cccc([N+](=O)[O-])c1.Cl (racemic) ?
NO

In plain terms, does CO/C(O)=C1\C(C)=NC(C)=C(C(=O)O[C@@H]2CCN(Cc3ccccc3)C2)[C@H]1c1cccc([N+](=O)[O-])c1.Cl come in under 7 nM l-1 for Ki?
YES

Would you kindly verify if Ki of CO/C(O)=C1\C(C)=NC(C)=C(C(=O)O[C@@H]2CCN(Cc3ccccc3)C2)[C@@H]1c1cccc([N+](=O)[O-])c1.Cl is strictly less than 7 nM l-1?
NO

Please state whether Ki is below 7 nM l-1 for COC(=O)C1=C(C)NC(C)=C(C(=O)OCCN(C)Cc2ccccc2)C1c1cccc([N+](=O)[O-])c1 (racemic) [NICARDIPINE]
YES

Does this compound meet the criterion Ki < 7 nM l-1? COC(=O)C1=C(C)NC(C)=C(C(=O)OCCN(C)Cc2ccccc2)[C@H]1c1cccc([N+](=O)[O-])c1
YES
